Recorded IC50 for the following compounds
# EXPERIMENTAL_TARGET: V600E mutant B-RAF (Homo sapiens, UniProt P15056, V600E)
# Sequence (P15056 whole entry V600E): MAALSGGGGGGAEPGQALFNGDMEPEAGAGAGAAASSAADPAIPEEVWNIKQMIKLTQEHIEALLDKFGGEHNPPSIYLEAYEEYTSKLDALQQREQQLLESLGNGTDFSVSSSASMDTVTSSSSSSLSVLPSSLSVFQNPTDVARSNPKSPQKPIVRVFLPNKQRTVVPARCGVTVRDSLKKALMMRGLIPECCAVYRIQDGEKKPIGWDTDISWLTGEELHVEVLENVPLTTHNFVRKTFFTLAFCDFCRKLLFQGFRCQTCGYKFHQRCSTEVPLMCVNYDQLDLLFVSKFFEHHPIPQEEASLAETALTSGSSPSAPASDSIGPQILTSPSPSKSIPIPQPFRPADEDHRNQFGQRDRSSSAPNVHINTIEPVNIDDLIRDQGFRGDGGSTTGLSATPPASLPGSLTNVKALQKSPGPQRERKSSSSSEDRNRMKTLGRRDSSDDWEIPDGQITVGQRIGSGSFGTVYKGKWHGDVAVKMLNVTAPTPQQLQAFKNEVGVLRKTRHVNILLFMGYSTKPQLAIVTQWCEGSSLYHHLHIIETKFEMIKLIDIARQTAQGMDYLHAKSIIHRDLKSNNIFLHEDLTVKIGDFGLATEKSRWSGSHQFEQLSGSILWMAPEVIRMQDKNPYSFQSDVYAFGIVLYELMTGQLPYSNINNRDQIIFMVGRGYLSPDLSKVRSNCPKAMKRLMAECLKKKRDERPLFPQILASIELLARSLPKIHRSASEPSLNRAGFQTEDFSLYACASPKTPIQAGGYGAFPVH
# TEST: V600E Mutant B-RAF 33P Assay

Entry `NC(=O)c1sc2nc(NC3CC3)nc(Nc3ccccc3)c2c1N` , V600E mutant B-RAF (Homo sapiens, UniProt P15056, V600E) data, IC50 value: 10 to 20 µM

Let me check: `NC(=O)c1sc2nc(NC3CC3)nc(-c3ccc4c(c3)OCC4)c2c1N` , system V600E mutant B-RAF (Homo sapiens, UniProt P15056, V600E), measured IC50 is 0.1 to 10 µM

Summary: `NC(=O)c1sc2nc(NC3CC3)nc(-c3ccc(OCc4ccccc4)nc3)c2c1N` , V600E mutant B-RAF (Homo sapiens, UniProt P15056, V600E), IC50 = 0.1 to 10 µM

Form field, IC50 with V600E mutant B-RAF (Homo sapiens, UniProt P15056, V600E), item `CCOc1nc(-c2cccc(C(F)F)c2)c2c(N)c(C(N)=O)sc2n1` : 0.1 to 10 µM

The compound `COc1ccnc(-c2nc(NC(C)(C)CO)nc3sc(C(N)=O)c(N)c23)c1` , tested on V600E mutant B-RAF (Homo sapiens, UniProt P15056, V600E), showed IC50 of 30 to 60 µM
